Listed here: items and their measured GI50.
System: MDA-MB-435

# COMPOUND, GI50
rows = [
    ("Brc1ccc2[nH]cc(-c3nc(-c4c[nH]c5ccncc45)cs3)c2c1", "1.66 µM"),
    ("Cc1ccc(Nc2ccnc(Nc3cccc(C(N)=O)c3)n2)cc1O", "7.98 µM"),
    ("COc1ccccc1OCC(O)CO (stereo unspecified)", "> 100 µM"),
    ("O=C(Nc1ccc(-c2nc3ccc(NC(=O)c4ccc(Cl)cc4)cc3[nH]2)cc1)c1ccc(Cl)cc1", "2.36 µM"),
    ("NC(=O)c1ccc(NC(=O)c2oc3ccccc3c2-c2cnn(-c3ccccc3)c2)cc1", "> 100 µM"),
    ("Nc1ccccc1C#Cc1ccccc1C#CCCCCO", "10.3 µM"),
    ("COc1cc(SC)ccc1C(=O)N1CCCC(C)C1 (stereo unspecified)", "> 100 µM"),
    ("CC(=O)OCC1OC(O[C@@H]2C[C@H]3C(C)(C)[C@H](OC(C)=O)CC[C@]3(C)[C@H]3CC[C@@H]4[C@]5(CC[C@@]4(C)[C@@]32C)O[C@@H]([C@H](O)C(C)(C)O)C[C@@H]5C)C(O)C(O)C1O (stereo partly specified)", "8.36 µM"),
    ("COCCn1cc(-c2csc(-c3c[nH]c4ccc(F)cc34)n2)c2cccnc21", "0.89 µM"),
    ("O=C(N/N=C\\c1cc(Cl)ccc1O)N/N=C/c1cc(Cl)ccc1O", "1.36 µM"),
    ("COc1cc([N+](=O)[O-])c2ncccc2c1O", "3.53 µM"),
]

====

System: SK-MEL-5 melanoma
Assay: NCI tumour cell line growth inhibition, 48 h; in the data active = GI50 below about 0.43 µM; inactive = the rest
Possible outcomes: true (1) (active), false (0) (inactive)

# MOLECULE, GROUP
measured = [
    ("CCc1ccc(/C=C2/SC(=S)NC2=O)cc1", "false (0)"),
    ("COc1cc(SC)ccc1C(=O)N1CCCC(C)C1 (stereo not given)", "false (0)"),
    ("Cc1ccc(Nc2ccnc(Nc3cccc(C(N)=O)c3)n2)cc1O", "false (0)"),
    ("O.O=[Se](=O)(O)O.[NH-]C1CCCCC1[NH-].[Pt+2] (stereo not given)", "false (0)"),
    ("CC(=O)OCC1OC(O[C@@H]2C[C@H]3C(C)(C)[C@H](OC(C)=O)CC[C@]3(C)[C@H]3CC[C@@H]4[C@]5(CC[C@@]4(C)[C@@]32C)O[C@@H]([C@H](O)C(C)(C)O)C[C@@H]5C)C(O)C(O)C1O (stereo not given in full)", "false (0)"),
    ("COc1cc(C(=O)c2c(-c3ccccc3)oc3ccccc23)cc(OC)c1O", "false (0)"),
    ("NC(=O)c1ccc(-c2c3ccccc3cc3c2ccc2ccccc23)cc1", "false (0)"),
    ("Cc1cc(C#Cc2ccccc2)ccc1-n1c(/C=C/c2ccc(O)cc2)nc2ccccc2c1=O", "false (0)"),
    ("COCCOCCOCCOCCOc1ccc2c(c1)C(=O)c1nc3ncccc3c(=O)n1-2", "true (1)"),
    ("ClCc1ccc(Cn2cnc3ncnc(Cl)c32)cc1", "false (0)"),
]

====

Tested on: A498 renal
Test: NCI tumour cell line growth inhibition, 48 h
MEASURE_NAME: TGI (µM)

# MOLECULE, ASSAY_TARGET, MEASUREMENT_UNITS, COMPARISON_SIGN, ENDPOINT_VALUE
records = [
    ("C=C1C(=O)O[C@H]2[C@@H](O)[C@H](C)CCC/C(C)=C/CC[C@@]3(C)O[C@@H]3C[C@@H]12", "A498 renal", "µM", "=", 25.3),
    ("Cc1ccc2c(=O)c3c(O)c4c(cc3n(C)c2c1)OC(C)(C)C=C4", "A498 renal", "µM", ">", 10),
    ("C=C1C(=O)O[C@H]2[C@H](OC(C)=O)[C@@H](C)CCC/C(C)=C/CC[C@]3(CO3)[C@H](O)C[C@@H]12", "A498 renal", "µM", "=", 33.4),
    ("O=C1C(=O)C(CCCO)(CCCO)CCCCCCCCC1(CCCO)CCCO", "A498 renal", "µM", ">", 100),
    ("C=C1C(=O)OC2C1CC1OC2C(C)CCC/C(C)=C\\CCC1(C)O (centres undefined)", "A498 renal", "µM", "=", 60.3),
    ("Cn1c(=O)n2n(c1=O)C1C(=CC2)C2C=CC1n1c(=O)n(C)c(=O)n12 (centres undefined)", "A498 renal", "µM", ">", 100),
    ("C[C@H]1CC(=O)[C@@]2(O)C#C/C=C\\C#C[C@@H]3Nc4c(cc(O)c5c4C(=O)c4ccccc4C5=O)[C@]24O[C@]314", "A498 renal", "µM", "=", 0.217),
    ("COCCOCCOCCOCCOc1ccc2c(c1)C(=O)c1nc3ncccc3c(=O)n1-2", "A498 renal", "µM", "=", 3.16),
    ("COc1cc(C(N)=O)c(OC)c(OC)c1OC", "A498 renal", "µM", ">", 100),
    ("CCc1ccc(/C=C2/SC(=S)NC2=O)cc1", "A498 renal", "µM", "=", 36.4),
    ("C[Si](C)(C)[C@@]1([Se]c2ccccc2)CC[C@@H]1C(=O)c1ccccc1", "A498 renal", "µM", ">", 100),
    ("CC(=O)OCC1OC(O[C@@H]2C[C@H]3C(C)(C)[C@H](OC(C)=O)CC[C@]3(C)[C@H]3CC[C@@H]4[C@]5(CC[C@@]4(C)[C@@]32C)O[C@@H]([C@H](O)C(C)(C)O)C[C@@H]5C)C(O)C(O)C1O (some centres undefined)", "A498 renal", "µM", "=", 25.9),
    ("O=C1CCCc2c(O)ccc(O)c21", "A498 renal", "µM", ">", 100),
    ("CC[N+]1(C)CCC(O)(/C=C/c2ccc(Cl)c(Cl)c2)C(C(=O)/C=C/c2ccc(Cl)c(Cl)c2)C1 (centres undefined)", "A498 renal", "µM", "=", 7.12),
]
